B1: LINE1-full (parent)
chain: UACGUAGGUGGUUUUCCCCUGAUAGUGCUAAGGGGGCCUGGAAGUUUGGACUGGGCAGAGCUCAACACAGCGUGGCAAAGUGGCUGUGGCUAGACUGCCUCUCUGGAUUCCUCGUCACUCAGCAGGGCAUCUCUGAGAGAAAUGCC

Variants of: B1
Assay: self-cleavage, relative activity (ratio to wild type); higher = more cleavage; in vitro, sequencing; the parent is a self-cleaving ribozyme
Our labelling divides records by self-cleavage into ranges: bottom: < 0.2; middle: ≥ 0.2 and < 1; top: ≥ 1

>>> category_label("C123G A140U")
"top"
>>> category_label("G60A G127A")
"bottom"
>>> category_label("U23C A43G")
"top"
>>> category_label("G82A A94U")
"middle"
>>> category_label("G40A U81A")
"top"
>>> category_label("A42C U119C")
"bottom"
>>> category_label("G53A A77G")
"top"
>>> category_label("U47G U73C")
"top"
>>> category_label("G41C U45C")
"middle"
>>> category_label("A117C A141G")
"top"
>>> category_label("G33C A142C")
"top"
>>> category_label("A30C U112C")
"top"
>>> category_label("U20A G139A")
"middle"
>>> category_label("G10A G32A")
"middle"
>>> category_label("A67C A78U")
"bottom"
>>> category_label("U62A C71U")
"bottom"
>>> category_label("G10A U52C")
"middle"
>>> category_label("A64G A141G")
"middle"
>>> category_label("U9C C95G")
"bottom"
>>> category_label("U29C C116U")
"middle"
>>> category_label("U15C U62A")
"bottom"
>>> category_label("U39C C61G")
"bottom"
>>> category_label("C37G U132A")
"top"
